Activity (relative to RLuc) n values, listed per item
Assay Details: Luciferase activity of purified RLuc mutants (light output integrated over 10 s, luminometer)
Type: biochemical
Conditions Used: coelenterazine-n; relative to native enzyme
// no unit string in output, number only

C124A/E195S/P196D: RLuc mutant C124A/E195S/P196D (protein) MASKVYDPEQRKRMITGPQWWARCKQMNVLDSFINYYDSEKHAENAVIFLHGNAASSYLWRHVVPHIEPVARCIIPDLIGMGKSGKSGNGSYRLLDHYKYLTAWFELLNLPKKIIFVGHDWGAALAFHYSYEHQDKIKAIVHAESVVDVIESWDEWPDIEEDIALIKSEEGEKMVLENNFFVETMLPSKIMRKLSDEEFAAYLEPFKEKGEVRRPTLSWPREIPLVKGGKPDVVQIVRNYNAYLRASDDLPKMFIESDPGFFSNAIVEGAKKFPNTEFVKVKGLHFSQEDAPDEMGKYIKSFVERVLKNEQ ... 0.10

*Q* Value lookup for Activity (relative to RLuc) n; key = F116L/C124A: RLuc mutant F116L/C124A (protein) MASKVYDPEQRKRMITGPQWWARCKQMNVLDSFINYYDSEKHAENAVIFLHGNAASSYLWRHVVPHIEPVARCIIPDLIGMGKSGKSGNGSYRLLDHYKYLTAWFELLNLPKKIILVGHDWGAALAFHYSYEHQDKIKAIVHAESVVDVIESWDEWPDIEEDIALIKSEEGEKMVLENNFFVETMLPSKIMRKLEPEEFAAYLEPFKEKGEVRRPTLSWPREIPLVKGGKPDVVQIVRNYNAYLRASDDLPKMFIESDPGFFSNAIVEGAKKFPNTEFVKVKGLHFSQEDAPDEMGKYIKSFVERVLKNEQ
*A* 0.88

*Q* Okay, and C124A/S130A: RLuc mutant C124A/S130A (protein) MASKVYDPEQRKRMITGPQWWARCKQMNVLDSFINYYDSEKHAENAVIFLHGNAASSYLWRHVVPHIEPVARCIIPDLIGMGKSGKSGNGSYRLLDHYKYLTAWFELLNLPKKIIFVGHDWGAALAFHYAYEHQDKIKAIVHAESVVDVIESWDEWPDIEEDIALIKSEEGEKMVLENNFFVETMLPSKIMRKLEPEEFAAYLEPFKEKGEVRRPTLSWPREIPLVKGGKPDVVQIVRNYNAYLRASDDLPKMFIESDPGFFSNAIVEGAKKFPNTEFVKVKGLHFSQEDAPDEMGKYIKSFVERVLKNEQ ?
*A* 1.4

*Q* Okay, and C124A/L203R: RLuc mutant C124A/L203R (protein) MASKVYDPEQRKRMITGPQWWARCKQMNVLDSFINYYDSEKHAENAVIFLHGNAASSYLWRHVVPHIEPVARCIIPDLIGMGKSGKSGNGSYRLLDHYKYLTAWFELLNLPKKIIFVGHDWGAALAFHYSYEHQDKIKAIVHAESVVDVIESWDEWPDIEEDIALIKSEEGEKMVLENNFFVETMLPSKIMRKLEPEEFAAYREPFKEKGEVRRPTLSWPREIPLVKGGKPDVVQIVRNYNAYLRASDDLPKMFIESDPGFFSNAIVEGAKKFPNTEFVKVKGLHFSQEDAPDEMGKYIKSFVERVLKNEQ ?
*A* 0.41
